# credit: patent US4313943A

Assay: Motor coordination in rats (rotarod, Dunham and Miya 1957)
Details: rat, rotarod, po
measuredMetric: TD50

INSERT INTO measurements (smilesstring, observedvalue) VALUES
  ('C#CCN1C(=O)CN=C(c2ccccc2Cl)c2cc(Cl)ccc21', '14.9 mg/kg');

Consider the additional compound presented here.
Form field: reported TD50 of `C#CCN1C(=O)CN=C(c2ccccc2)c2cc(Cl)ccc21`
67.9 mg/kg

* * *

Catalogue of LD50 readings, one per entry.
Test: Acute toxicity in the mouse (oral)
Settings: in vivo, mouse (male)
Description: The test compounds shown in Table 2 were administered orally to male mice and rats in the form of a suspension in a 1% solution of sodium carboxymethyl cellulose. The LD50 (lethal dose 50%) was calculated by the method of Litchfield and Wilcoxon.
Express the result in mg/kg but write the number alone.

INSERT INTO assay_data (smilesstring, observedvalue) VALUES
  ('C#CCN1C(=O)CN=C(c2ccccc2)c2cc([N+](=O)[O-])ccc21', 1880);

Consider the additional compound presented here.
Form field: reported LD50 of `C#CCN1C(=O)CN=C(c2ccccc2)c2cc(Cl)ccc21`
1300
